This collection of values is drawn from patent US20230049752A1.

Provide the recorded FACS fluorescence for the entries that follow.
- STUDY SYSTEM: human Claudin-6 (CLDN6) (human) (UniProt P56747)
- ASSAY: FACS, 0.3 ug Ab, 293T clone expressing human CLDN6 (2nd Ab only 768.07)
Simply state the number, no unit and no words.

For reference, reported FACS fluorescence for AB4-7 (antibody, V domains shown, humanized) VH: QVQLVQSGAEVKKPGASVKMSCKASGYTFTSYTMHWIRQAPGQGQEWIGYINPSSTYTHYAQKFQGRATLTADKSTSTAYMELSSLRSEDTAVYYCSRGELGGFAYWGQGTLVTVSS VL: DVVMTQSPLSLPVTLGQPASISCRSSQSLVHSDGNTYLNWYQQRPGQSPRLLIYKVSNRFSGVPDRFSGSGSGTDFTLKISRVEAEDVGVYYCSQSTHVPYTFGQGTKLEIK stands at 19200

For reference, reported FACS fluorescence for AB4-4 (antibody, V domains shown, humanized) VH: QVQLVQSGAEVKKPGASVKMSCKASGYTFTSYTMHWIRQAPGQGLEWIGYINPSSTYTHYAQKFQGRATLTADTSTSTAYMELSSLRSEDTAVYYCSRGELGGFAYWGQGTLVTVSS VL: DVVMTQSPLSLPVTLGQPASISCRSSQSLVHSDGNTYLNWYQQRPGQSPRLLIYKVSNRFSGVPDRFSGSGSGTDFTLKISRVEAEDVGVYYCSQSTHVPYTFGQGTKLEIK stands at 14100

For reference, reported FACS fluorescence for AB1-5 (antibody, V domains shown, humanized) VH: QVQLVQSGAEVKKPGASVKVSCKASGYTFTTYTMHWVRQAPGQGLEWMGFINPSSGYTDYAQKFQGRVTMTADTSTSTVYMELSSLRSEDTAVYYCANGDYYVAYWGQGTLVTVSS VL: DIQLTQSPSSLSASVGDRVTMTCTASSSVSSTYFHWYQQKPGKAPKLWIYSTSNLASGVPSRFSGSGSGTDYTLTISSMQPEDAATYYCHQYHRSPLTFGQGTKLEIK stands at 138000
